Assayed system: cloned rat PDE10A full-length enzyme (Rattus norvegicus, UniProt Q9QYJ6)
Construct: cloned rat PDE10A full-length enzyme grown in transfected Sf9 insect cells
Sequence (Q9QYJ6 whole entry): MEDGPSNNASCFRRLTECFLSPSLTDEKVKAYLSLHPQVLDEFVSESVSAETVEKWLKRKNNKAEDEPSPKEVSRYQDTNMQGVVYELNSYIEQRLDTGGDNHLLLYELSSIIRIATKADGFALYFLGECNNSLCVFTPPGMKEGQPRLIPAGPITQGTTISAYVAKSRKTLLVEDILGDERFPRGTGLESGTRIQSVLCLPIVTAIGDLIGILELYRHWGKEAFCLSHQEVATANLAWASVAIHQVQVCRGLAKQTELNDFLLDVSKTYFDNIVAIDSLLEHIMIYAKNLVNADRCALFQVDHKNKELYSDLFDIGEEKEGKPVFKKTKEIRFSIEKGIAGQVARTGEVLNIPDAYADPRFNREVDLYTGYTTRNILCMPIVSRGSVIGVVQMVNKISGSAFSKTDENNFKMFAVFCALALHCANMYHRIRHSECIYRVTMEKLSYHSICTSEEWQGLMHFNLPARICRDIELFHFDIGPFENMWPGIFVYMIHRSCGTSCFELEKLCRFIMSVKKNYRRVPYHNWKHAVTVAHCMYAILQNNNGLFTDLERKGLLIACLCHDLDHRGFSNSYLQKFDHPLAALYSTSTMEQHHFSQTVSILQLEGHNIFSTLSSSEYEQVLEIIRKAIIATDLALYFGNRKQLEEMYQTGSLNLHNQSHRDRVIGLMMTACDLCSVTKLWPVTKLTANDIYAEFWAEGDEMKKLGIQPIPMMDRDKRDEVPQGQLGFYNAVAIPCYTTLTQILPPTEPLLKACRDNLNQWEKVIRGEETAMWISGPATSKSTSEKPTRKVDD
Method summary: PDE10 enzyme inhibition, [3H]cAMP scintillation proximity assay
Assay setup: rat PDE10A from Sf9 cells, 20 nM [3H]cAMP, SPA beads, 20 minute incubation at room temperature
The entries below come with measured IC50 values attached.

// known answers, use as guide
# Compound, IC50
measured = [
    ("Cc1ccc(-n2cc(-c3ccccn3)nc2-c2ccc(-n3ccc4nccnc43)cc2)cn1 [Example 50]", "< 3.47 nM"),
    ("Cc1ccc(-n2cc(-c3ccccn3)nc2-c2ccc(-n3ccc4cc(Cl)cnc43)cc2)cn1 [Example 20]", "< 2.72 nM"),
]

Ask: Would you mind telling me what IC50 value was observed for On1c(-c2cccs2)nc(-c2ccc(-n3ccc4cccnc43)cc2)c1-c1cnccn1 [Example 104] ?
Reply: < 2.45 nM

Ask: GET /values?readout=IC50&item= COc1nc2cccnc2n1-c1ccc(-c2nc(-c3cccs3)cn2-c2ccc(C)nc2)cc1 [Example 93]
Reply: < 0.424 nM

Data provenance is patent US20080090834A1.
